- Test system: C. neoformans
- study_conditions: 72 h
Non-standard residues stand in square brackets, D forms with d. Residues, ends and D or L forms follow the SMILES beside them. Ava = NCCCCC(=O)O
assay_endpoint: MIC C. neoformans (µg/mL)
Reply numerically in µg/mL, unit not repeated.

Prompt: Query for C. neoformans: what MIC C. neoformans does the record show for N=C(N)NCCC[C@@H](N)C(=O)N[C@@H](CCCNC(=N)N)C(=O)N[C@H](CCCNC(=N)N)C(=O)NCCCCC(=O)N[C@H](CCCNC(=N)N)C(=O)N[C@@H](CCCNC(=N)N)C(=O)NCCCCC(=O)N[C@H](CCCNC(=N)N)C(=O)N[C@@H](CCCNC(=N)N)C(=O)NCCCCC(=O)N[C@H](CCCNC(=N)N)C(=O)N[C@@H](CCCNC(=N)N)C(=O)N[C@H](CCCNC(=N)N)C(N)=O [SEQ ID NO: 28, rRr-(Ava)-rR-(Ava)-rR-(Ava)-rRr-NH2] (H-[dR]R[dR][Ava][dR]R[Ava][dR]R[Ava][dR]R[dR]-NH2) ?
Response: 8

The record that follows has no MIC C. neoformans shown yet.
Prompt: Query for C. neoformans: what MIC C. neoformans does the record show for N=C(N)NCCC[C@@H](N)C(=O)N[C@@H](CCCNC(=N)N)C(=O)N1CCC[C@H]1C(=O)N[C@H](CCCNC(=N)N)C(=O)N[C@@H](CCCNC(=N)N)C(=O)N[C@H](CCCNC(=N)N)C(=O)N1CCC[C@H]1C(=O)N[C@H](CCCNC(=N)N)C(=O)N[C@@H](CCCNC(=N)N)C(=O)N[C@H](CCCNC(=N)N)C(=O)N1CCC[C@H]1C(=O)N[C@H](CCCNC(=N)N)C(=O)N[C@@H](CCCNC(=N)N)C(N)=O [SEQ ID NO: 71, rR-P-rRr-P-rRr-P-rR-NH2] (H-[dR]RP[dR]R[dR]P[dR]R[dR]P[dR]R-NH2) ?
Response: 8

Numbers sourced from patent US20240360177A1.
